Collected koff values appear next to each entry.
Target Or Test System: T1, human PDGFRb.hFc (human)
T1 construct: Soluble dimeric construct with human Fc; also called hPDGFRb.hFc
Protocol: SPR, mAb captured, 37 C
Experimental: Antibodies, expressed as either mouse Fc (prefix H1M; H2M) or human Fc (prefix H4H), were captured on their respective anti-Fc sensor surfaces (Mab capture format). […] Kinetic association (kₐ) and dissociation (kd) rate constants were determined by processing and fitting the data to a 1:1 binding model using Scrubber 2.0 curve fitting software.
// return the numeric value with its unit appended

Use these answered entries as a reference point.
Binder: H4H3106S (antibody, human IgG4, V domains shown, human IgG4 Fc (H4H prefix)) VH: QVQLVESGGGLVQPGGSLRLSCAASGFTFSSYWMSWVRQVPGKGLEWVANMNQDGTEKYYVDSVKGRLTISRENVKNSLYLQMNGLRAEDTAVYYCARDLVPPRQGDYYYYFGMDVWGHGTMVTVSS VL: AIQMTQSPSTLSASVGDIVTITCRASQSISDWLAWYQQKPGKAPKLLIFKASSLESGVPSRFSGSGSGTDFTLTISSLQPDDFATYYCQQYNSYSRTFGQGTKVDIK
Observable: koff
Result: 0.000741 s⁻¹
//
Binder: H4H3095S (antibody, human IgG4, V domains shown, human IgG4 Fc (H4H prefix)) VH: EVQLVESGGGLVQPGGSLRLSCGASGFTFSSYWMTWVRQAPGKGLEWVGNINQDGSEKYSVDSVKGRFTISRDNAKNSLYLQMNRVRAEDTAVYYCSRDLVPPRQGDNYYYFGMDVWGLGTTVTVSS VL: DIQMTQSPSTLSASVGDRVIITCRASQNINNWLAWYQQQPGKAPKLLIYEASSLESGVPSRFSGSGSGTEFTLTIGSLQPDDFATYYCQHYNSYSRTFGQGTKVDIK
Observable: koff
Result: 0.00071 s⁻¹
//
Binder: H4H3105S (antibody, human IgG4, V domains shown, human IgG4 Fc (H4H prefix)) VH: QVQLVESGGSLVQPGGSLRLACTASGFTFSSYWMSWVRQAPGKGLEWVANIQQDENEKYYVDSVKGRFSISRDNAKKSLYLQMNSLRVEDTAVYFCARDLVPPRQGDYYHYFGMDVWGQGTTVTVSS VL: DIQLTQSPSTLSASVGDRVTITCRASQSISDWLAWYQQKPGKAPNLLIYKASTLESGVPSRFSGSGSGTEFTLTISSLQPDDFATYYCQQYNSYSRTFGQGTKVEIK
Observable: koff
Result: 0.000824 s⁻¹

**Q:** Identify measured koff associated with H4H3102S (antibody, human IgG4, V domains shown, human IgG4 Fc (H4H prefix)) VH: EVQLVESGGDLVHPGRSLRLSCVASGFTFDDYTMHWVRQAPGKGLEWVSAISWNGDNINYAGSVKGRFTISRDNAKNSLYLEMNSLRVEDTAFYYCAKGRGFSFGFNYLGQGTMVTVSS VL: AIRMTQSPSSLSASVGDRVTITCRASQDISNYLAWFQQQPGKAPKSLIYATSSLNSGVPSKFSGSGSGTDFTLTISSLQPEDFATYYCQQYKSYPLTFGGGTKVEIK
**A:** 0.000319 s⁻¹

**Q:** Identify measured koff associated with H4H3104S (antibody, human IgG4, V domains shown, human IgG4 Fc (H4H prefix)) VH: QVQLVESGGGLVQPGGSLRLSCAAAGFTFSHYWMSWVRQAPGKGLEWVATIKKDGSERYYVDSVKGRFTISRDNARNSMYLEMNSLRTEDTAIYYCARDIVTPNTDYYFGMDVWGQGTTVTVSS VL: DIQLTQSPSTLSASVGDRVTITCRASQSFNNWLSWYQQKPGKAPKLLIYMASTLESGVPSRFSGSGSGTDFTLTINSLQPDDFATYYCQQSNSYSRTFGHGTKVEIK
**A:** 0.000567 s⁻¹

**Q:** Identify measured koff associated with H4H3374N (antibody, human IgG4, V domains shown, human IgG4 Fc (H4H prefix)) VH: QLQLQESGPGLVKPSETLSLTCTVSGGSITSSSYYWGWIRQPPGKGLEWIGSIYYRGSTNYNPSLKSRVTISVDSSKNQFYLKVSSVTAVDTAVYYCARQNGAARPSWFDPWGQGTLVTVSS VL: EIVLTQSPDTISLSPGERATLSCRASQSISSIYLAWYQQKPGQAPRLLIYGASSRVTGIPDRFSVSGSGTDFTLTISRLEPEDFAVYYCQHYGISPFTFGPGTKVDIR
**A:** 0.000291 s⁻¹

**Q:** Identify measured koff associated with H4H3096S (antibody, human IgG4, V domains shown, human IgG4 Fc (H4H prefix)) VH: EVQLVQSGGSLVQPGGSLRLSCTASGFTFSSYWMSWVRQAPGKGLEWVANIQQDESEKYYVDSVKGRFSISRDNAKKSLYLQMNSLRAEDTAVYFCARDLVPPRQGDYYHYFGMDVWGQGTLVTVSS VL: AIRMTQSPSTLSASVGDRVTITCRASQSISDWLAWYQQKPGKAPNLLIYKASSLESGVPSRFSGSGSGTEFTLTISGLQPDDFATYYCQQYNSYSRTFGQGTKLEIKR
**A:** 0.000793 s⁻¹
